Below, each of the sequences is paired with its reported folding stability dG unfold value.
# Run Description: folding stability dG unfold from trypsin proteolysis; higher = more stable

>  <Polymer Sequence>
SAPDNIKVDINIERNPEDGHIRVEMEIEYPDGNEVYHSAWIDPDNGKIEIDVQVPNGKQIAEETIQIKPSAG [r14_524_TrROS]

>  <folding stability dG unfold>
0.166 kcal/mol

$$$$
>  <Polymer Sequence>
SAGGSAGGIIVWFPFDDIDELIKNGNIDEVEISRDPNDWFRFTPEIRPPPPPPPEQLAKNNKKNSAGGSAGG [r6_279_TrROS]

>  <folding stability dG unfold>
1.03 kcal/mol

$$$$
>  <Polymer Sequence>
SAGGSAGGKKKIKPPEVTIKIKNKDGSVFEAKITKVEYDEETKKLYLEIEIEVNGKKYKLTIELSAGGSAGG [r6_962_TrROS_Hall]

>  <folding stability dG unfold>
2.87 kcal/mol

$$$$
>  <Polymer Sequence>
SAGKTITVTSTHPDGRTATVTYTTLPDGSFKITSFTWEPWPDGTVTAKITTPDGTVITVNSIDDILKALSAG [r5_618_TrMRF]

>  <folding stability dG unfold>
2.4 kcal/mol

$$$$
>  <Polymer Sequence>
SAGGSAGGDVVIIPEPSEEDKMIFTIVADGEEAPVVLTVEADNLADVVDFLKEHGLAAGHPDDGSAGGSAGG [r6_40_TrMRF]

>  <folding stability dG unfold>
0.713 kcal/mol

$$$$
>  <Polymer Sequence>
SAGGSAMTYTITLKTPGSQSLELSLDEKLKLLSQTIDPNTGVTTLTLEGDPEEAKKLEQEIKEKLASAGGSA [r15_662_JUSTAS]

>  <folding stability dG unfold>
1.56 kcal/mol

$$$$
>  <Polymer Sequence>
SAGGSAGGSLSLPEGFKLSSLVSVEELPGVLRIYFLDPEKPLLYEVVYDLETGEQTVERIPIGSAGGSAGGS [r12_206_JUSTAS]

>  <folding stability dG unfold>
2.43 kcal/mol

$$$$
>  <Polymer Sequence>
SAMLPEGERKPFLVKVKIETPEGTPEFEAPVITEPPQKIHVSIDFDIPEGEHKIKIEFFGPKLEFEFDISAG [r14_280_TrMRF]

>  <folding stability dG unfold>
1.87 kcal/mol

$$$$
>  <Polymer Sequence>
SAGGSAGGSAGYTVSVSVETETLKYLDPETGELVEEETLVRVTITITPPPPAPPNLPENLSAGGSAGGSAGG [r17_493_TrROS_Hall]

>  <folding stability dG unfold>
2.37 kcal/mol

$$$$
>  <Polymer Sequence>
SAGGKTYKIKVTVEVKNENGETEKKEYVIEVKENKTPEEIAEELKKKLGVEKVEIVDPKTGKKYTIELSAGG [r13_663_TrROS_Hall]

>  <folding stability dG unfold>
1.9 kcal/mol

$$$$
>  <Polymer Sequence>
SAMTITVTAPPGYTLNVTVTLAGGVPLTRTFSPSQSIDITIPEGTPFSLTVTTTAPGGEVATSTLTVPLSAG [r14_568_JUSTAS]

>  <folding stability dG unfold>
3.19 kcal/mol

$$$$
>  <Polymer Sequence>
NWYIDIDEIKEAINDAPPGDEVELPFKFYDPDDGQKFKFRVTVEVNPNGKLTSVRIQHPGSGKPHAEINLKS [r1_165_TrROS]

>  <folding stability dG unfold>
0.636 kcal/mol

$$$$
>  <Polymer Sequence>
SAGGSAIKIIPNGDGIYIKIWFNNQPHPIPIESPEDAEEQVKSILDKFQKRNGMDIPEDMKVEIYPSAGGSA [r15_496_TrROS]

>  <folding stability dG unfold>
0.419 kcal/mol

$$$$
>  <Polymer Sequence>
SAGGSAGGMLVFVVKKIKPGMSDEQKKALEKLVKPGDVIELSPEEIERLAKLPWIQEIKVYPLPSAGGSAGG [r6_381_TrROS_Hall]

>  <folding stability dG unfold>
0.641 kcal/mol

$$$$
>  <Polymer Sequence>
KIPITIEEDPEDKMYELRVPDGMPIQIQRSKDGYRVSIWNPDNGKPREIPITKKDLKDLLSNPGFWIEIYKS [r1_18_TrROS]

>  <folding stability dG unfold>
1.64 kcal/mol

$$$$
>  <Polymer Sequence>
SAGGSAGGSAGKKKTITIKIPGMSKEEIAKLIKEKFGPNVKITEIKENKDNLLEITVEVESAGGSAGGSAGG [r11_580_TrROS_Hall]

>  <folding stability dG unfold>
2.79 kcal/mol

$$$$
>  <Polymer Sequence>
SAGGMITLTTKTELIGSYRVTYSVTVDPVDDSVVTSTHVTVTPLPPPPPPLPPVPPENPVLPSPRLESAGGS [r8_234_JUSTAS]

>  <folding stability dG unfold>
0.355 kcal/mol

$$$$

---

# Run Description: folding stability dG unfold from trypsin proteolysis; higher = more stable

>  <Polymer Sequence>
SMPGVRVRLYTVRVKTPEGGELTAPIAVPAELFTEEEIRELVREAFPDAEDVEIEPAVLELPPAPGLLTASA [r9_841_TrMRF]

>  <folding stability dG unfold, kcal/mol>
1.39

$$$$
>  <Polymer Sequence>
SAGGKTIMHMYMNPNGWFIRAKIKLDPDGKWKITDVEIYPMEMKYEDPNGKPREMPMFMIKIRIKPDSAGGS [r8_270_TrROS]

>  <folding stability dG unfold, kcal/mol>
3.03

$$$$
>  <Polymer Sequence>
SAGGSAGGSAGGSVPSVKLPKVGLKTDPVSSVLDFGEEKGDPVSVSIHLTLFLPDGTILLSAGGSAGGSAGG [r11_890_JUSTAS]

>  <folding stability dG unfold, kcal/mol>
0.161

$$$$
>  <Polymer Sequence>
SMSFEAELTLPDQPVTVPVTLDPATGTATVTVTTTHPDRDETTTTTVTVSDPSELLALLRELPPGATLRLSA [r9_713_JUSTAS]

>  <folding stability dG unfold, kcal/mol>
0.307

$$$$
>  <Polymer Sequence>
SAGGFKIEIEKNPEPDGIVIVIEYDMPPKGIKDFIEELFGPNPKDVTTEEHPNGRTEVTFRIPPGAPSAGGS [r16_605_TrROS]

>  <folding stability dG unfold, kcal/mol>
-0.426

$$$$
>  <Polymer Sequence>
SAGGKEVKIEIEEKDGKLVIKITVKTEEELKEEIKKLLEEEFGLEVEEVKVEKNKNGEVTIYVVIKKKSAGG [r13_158_TrROS_Hall]

>  <folding stability dG unfold, kcal/mol>
1.45

$$$$
>  <Polymer Sequence>
SAGGSAGGSPIEEIVAELKVPPGTTVKFPDGSTITLNSREDLLKLAKEGYPPEKLKDITVEAVSAGGSAGGS [r12_430_JUSTAS]

>  <folding stability dG unfold, kcal/mol>
0.308

$$$$
>  <Polymer Sequence>
SAGGSAGGSAMTVRIEFEDGSVKEIPAEEFSEDFIKALPKKYKVSEYPEPPLDNNKSNILKSAGGSAGGSAG [r3_69_JUSTAS]

>  <folding stability dG unfold, kcal/mol>
-0.0131

$$$$
>  <Polymer Sequence>
SAGGSASMPLTLTFTTPTRTFTVTIPPSKVSSVTVEEKGPTITVTVEAPDSTITINITPSSVTISASAGGSA [r15_598_JUSTAS]

>  <folding stability dG unfold, kcal/mol>
2.98

$$$$
>  <Polymer Sequence>
SAGKIKVYYDPKLGRIIEIPLPNGKRIRIYLPKNKLIIVAEDPEGNKAIPIEIETKIGDIIKIIKEIAGSAG [r5_820_TrMRF]

>  <folding stability dG unfold, kcal/mol>
2.9

$$$$
>  <Polymer Sequence>
SAGGMEFEFTREDGRKTRVELEVNPETGEVTEKIYVGGKLLYTFKDGELKYIPDEVAAARIEARLPPESAGG [r13_958_TrMRF]

>  <folding stability dG unfold, kcal/mol>
-0.0213

$$$$
>  <Polymer Sequence>
SAGGSAGGMVIEFPKEKVEEVKKELLDAGKPDWVIVTDPNDPDIIKIMPKSLAEEKGWKYTPLLSAGGSAGG [r6_710_JUSTAS]

>  <folding stability dG unfold, kcal/mol>
2.33

$$$$
>  <Polymer Sequence>
SAGGSAGGPIKDSKGKFIVTFEFPNGLKKKFEVENIKNPEIEFNFNGKKVKTKIIEIKKGDESKSAGGSAGG [r6_575_TrMRF]

>  <folding stability dG unfold, kcal/mol>
-0.117

$$$$
>  <Polymer Sequence>
SAGGSAGGSARTLTLTFLTDSPEVAERFVRELREQKPLRVEASYRRLPDGRYLVTVTIHLDSAGGSAGGSAG [r3_273_TrMRF]

>  <folding stability dG unfold, kcal/mol>
3.21

$$$$
>  <Polymer Sequence>
SAGGYVRIRIELQEKRKPPDGKQQQRKKKITITVRLPPNEEMRMPDGKDIDPGKSAEELADYALDNLSAGGS [r16_440_TrROS]

>  <folding stability dG unfold, kcal/mol>
2.16

$$$$
>  <Polymer Sequence>
SAGGGSMEEARRLIEEIAEEVKAKGVKVKVRITFGPDPKVLSIEIFSPDEPIVDNGGPGLVTLTFDIPSAGG [r13_693_JUSTAS]

>  <folding stability dG unfold, kcal/mol>
2.07

$$$$
>  <Polymer Sequence>
SAGGKEVLTVTVEVEIDGVLIRVEAEVTLDEDGNLTVTITRIEIRPLPPPKIDLRDLTDEQRKELGIESAGG [r13_964_TrROS_Hall]

>  <folding stability dG unfold, kcal/mol>
2.04

$$$$
>  <Polymer Sequence>
ATVTITDVSFDPETNTITVTVTVTGPDGTTTTFTATFRIEPAPPPAPPAPVYVVDDDGKVYNLDTGEWKDVS [r1_270_TrROS_Hall]

>  <folding stability dG unfold, kcal/mol>
2.12

$$$$
>  <Polymer Sequence>
MRLYLVKVEIRREEVDPETGEVREEKLELTVLVREEDEEALEKAEELARKLAEEEGIKEVKVEVVELPAEES [r1_346_TrROS_Hall]

>  <folding stability dG unfold, kcal/mol>
2.3

$$$$
>  <Polymer Sequence>
SAGGSAGGSAGGGSMPVTERIPGSPSSVTTTTFPDGTVTTETTAGPPVTLSPAGGSTLVSAGGSAGGSAGGS [r10_664_JUSTAS]

>  <folding stability dG unfold, kcal/mol>
0.97

$$$$
